half-life at 5 uM for assorted compounds
Assay: Quantitative plasma stability Method #3 (LC-MS, 95% plasma), rat plasma
Assay type: in vitro ADME
Settings: rat, plasma; Table 15; method #3; read-out: t1/2 (hrs) in rat plasma (converted)
Quick note: give the figure in h, leave out the unit.

Q: Could you share which half-life at 5 uM value was measured for CC(=O)N[C@H]1CSCc2cc3cc(c2)CSC[C@H](NC(=O)[C@H](Cc2ccc(NC(=N)N)cc2)NC(=O)[C@H](C)NC(=O)[C@@H]2CCCN2C(=O)[C@H](Cc2c[nH]c4ccccc24)NC(=O)[C@H](CO)NC1=O)C(=O)N[C@@H](CC(C)C)C(=O)N[C@@H](Cc1c[nH]cn1)C(=O)N[C@@H](CCC(N)=O)C(=O)N[C@@H](CC(=O)O)C(=O)N[C@@H](CC(C)C)C(=O)N[C@H](C(N)=O)CSC3 [Ac-(06-34-18) 4GuanPhe5] ?
A: 2.8

Q: I'd like to know its half-life at 5 uM. The compound in question is CC(=O)N[C@H]1CSCc2cc3cc(c2)CSC[C@H](NC(=O)[C@H](CCCCNC(=N)N)NC(=O)[C@H](C)NC(=O)[C@@H]2CCCN2C(=O)[C@H](Cc2c[nH]c4ccccc24)NC(=O)[C@H](CO)NC1=O)C(=O)N[C@@H](CC(C)C)C(=O)N[C@@H](Cc1c[nH]cn1)C(=O)N[C@@H](CCC(N)=O)C(=O)N[C@@H](CC(=O)O)C(=O)N[C@@H](CC(C)C)C(=O)N[C@H](C(N)=O)CSC3 [Ac-(06-34-18) HomoArg5]
A: 10.7

###

Target: human plasma Kallikrein (Homo sapiens)
Construct: purchased Stratech, UK
Assay: Functional enzyme inhibition assay with fluorogenic substrate Z-PheArg-AMC, human plasma Kallikrein
Format: biochemical
Settings: Table 24b, residue 7 modifications; read-out: Ki
Numbered stars: 1 amine (or outer) side, 2 acyl side, 3 side chain; on linkers, the order of the positions; unused ones are H or OH. Bridge positions count the residues as written; N and C are the ends. Square brackets hold non-standard residues; d marks the D form. Peptide text beside a SMILES is read from it. TBMB = c1c(C[*:1])cc(C[*:3])cc1C[*:2]; 3Pal = N[C@@H](Cc1cccnc1)C(=O)O
outcome_measure: Ki (nM)
Please give a number only; it is taken to be in nM.

Q: Which Ki is listed for CC(=O)N[C@H]1CSCc2cc3cc(c2)CSC[C@H](NC(=O)[C@H](CCCNC(=N)N)NC(=O)[C@H](Cc2ccc(O)cc2)NC(=O)[C@@H]2CCCN2C(=O)[C@H](Cc2ccccc2)NC(=O)[C@H](CO)NC1=O)C(=O)N[C@@H](CC(C)C)C(=O)N[C@@H](Cc1cccnc1)C(=O)N[C@@H](CCC(N)=O)C(=O)N[C@@H](CC(=O)O)C(=O)N[C@@H](CC(C)C)C(=O)N[C@H](C(N)=O)CSC3 [Ac-(06-34-18) Phe2 Tyr4 3Pal7] (Ac-CSFPYRCL[3Pal]QDLC-NH2; linker 1-7-13 via TBMB) ?
A: 130

Q: Bench note: what Ki did CC(=O)N[C@H]1CSCc2cc3cc(c2)CSC[C@H](NC(=O)[C@H](CCCNC(=N)N)NC(=O)[C@H](Cc2ccc(O)cc2)NC(=O)[C@@H]2CCCN2C(=O)[C@H](Cc2ccccc2)NC(=O)[C@H](CO)NC1=O)C(=O)N[C@@H](CC(C)C)C(=O)N[C@@H](Cc1ccccc1)C(=O)N[C@@H](CCC(N)=O)C(=O)N[C@@H](CC(=O)O)C(=O)N[C@@H](CC(C)C)C(=O)N[C@H](C(N)=O)CSC3 [Ac-(06-34-18) Phe2 Tyr4 Phe7] (Ac-CSFPYRCLFQDLC-NH2; linker 1-7-13 via TBMB) show?
A: 43

###

Target: human plasma Kallikrein (Homo sapiens)
Construct: purchased Stratech, UK
Assay: Functional enzyme inhibition assay with fluorogenic substrate Z-PheArg-AMC, human plasma Kallikrein
Format: biochemical
Conditions: Table 24b; ratio of Ki to wild type
Numbered stars: 1 amine (or outer) side, 2 acyl side, 3 side chain; on linkers, the order of the positions; unused ones are H or OH. Bridge positions count the residues as written; N and C are the ends. Square brackets hold non-standard residues; d marks the D form. Peptide text beside a SMILES is read from it. TBMB = c1c(C[*:1])cc(C[*:3])cc1C[*:2]; 3Pal = N[C@@H](Cc1cccnc1)C(=O)O
// reported F (Kivar/KiWT) per item
API doc: respond with a numeric literal and nothing else, no unit.

CC(=O)N[C@H]1CSCc2cc3cc(c2)CSC[C@H](NC(=O)[C@H](CCCNC(=N)N)NC(=O)[C@H](Cc2ccc(O)cc2)NC(=O)[C@@H]2CCCN2C(=O)[C@H](Cc2ccccc2)NC(=O)[C@H](CO)NC1=O)C(=O)N[C@@H](CC(C)C)C(=O)N[C@@H](Cc1c[nH]cn1)C(=O)N[C@@H](CCC(N)=O)C(=O)N[C@@H](CC(=O)O)C(=O)N[C@@H](CC(C)C)C(=O)N[C@H](C(N)=O)CSC3 [Ac-(06-34-18) Phe2 Tyr4] (Ac-CSFPYRCLHQDLC-NH2; linker 1-7-13 via TBMB)    1

The record that follows has no F (Kivar/KiWT) shown yet.
Q: Param readout = F (Kivar/KiWT); param system = human plasma Kallikrein (Homo sapiens); param query = CC(=O)N[C@H]1CSCc2cc3cc(c2)CSC[C@H](NC(=O)[C@H](CCCNC(=N)N)NC(=O)[C@H](Cc2ccc(O)cc2)NC(=O)[C@@H]2CCCN2C(=O)[C@H](Cc2ccccc2)NC(=O)[C@H](CO)NC1=O)C(=O)N[C@@H](CC(C)C)C(=O)N[C@@H](Cc1cccnc1)C(=O)N[C@@H](CCC(N)=O)C(=O)N[C@@H](CC(=O)O)C(=O)N[C@@H](CC(C)C)C(=O)N[C@H](C(N)=O)CSC3 [Ac-(06-34-18) Phe2 Tyr4 3Pal7] (Ac-CSFPYRCL[3Pal]QDLC-NH2; linker 1-7-13 via TBMB) ; response: value
A: 308

###

We begin with a simple list: items and their reported F (Kivar/KiWT).
Target: human plasma Kallikrein (Homo sapiens, UniProt P03952)
Construct: purchased Stratech, UK
Sequence (P03952 20-638): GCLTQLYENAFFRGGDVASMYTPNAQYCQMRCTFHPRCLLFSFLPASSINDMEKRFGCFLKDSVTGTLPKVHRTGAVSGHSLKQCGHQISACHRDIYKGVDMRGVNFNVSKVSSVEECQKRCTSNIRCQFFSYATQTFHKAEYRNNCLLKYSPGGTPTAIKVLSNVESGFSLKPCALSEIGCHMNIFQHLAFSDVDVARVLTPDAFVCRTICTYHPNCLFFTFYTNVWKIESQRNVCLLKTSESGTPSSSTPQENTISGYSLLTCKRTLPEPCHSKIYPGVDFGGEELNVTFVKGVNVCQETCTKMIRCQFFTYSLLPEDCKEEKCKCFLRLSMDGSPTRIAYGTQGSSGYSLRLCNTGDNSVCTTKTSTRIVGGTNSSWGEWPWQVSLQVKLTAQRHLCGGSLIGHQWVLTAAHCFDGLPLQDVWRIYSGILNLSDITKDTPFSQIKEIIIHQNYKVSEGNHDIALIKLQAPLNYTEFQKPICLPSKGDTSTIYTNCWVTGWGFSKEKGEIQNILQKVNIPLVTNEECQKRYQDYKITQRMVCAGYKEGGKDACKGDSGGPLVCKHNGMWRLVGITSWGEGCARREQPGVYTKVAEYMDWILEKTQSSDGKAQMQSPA
Test: Functional enzyme inhibition assay with fluorogenic substrate Z-PheArg-AMC, human plasma Kallikrein
Assay type: biochemical
Details: Table 24c; ratio of Ki to wild type
Numbered stars: 1 amine (or outer) side, 2 acyl side, 3 side chain; on linkers, the order of the positions; unused ones are H or OH. Bridge positions count the residues as written; N and C are the ends. Square brackets hold non-standard residues; d marks the D form. Peptide text beside a SMILES is read from it. TBMB = c1c(C[*:1])cc(C[*:3])cc1C[*:2]; Dap = NC[C@H](N)C(=O)O
# print the numeric value only

CC(=O)N[C@H]1CSCc2cc3cc(c2)CSC[C@H](NC(=O)[C@H](CCCNC(=N)N)NC(=O)[C@H](Cc2ccc(O)cc2)NC(=O)[C@@H]2CCCN2C(=O)[C@H](Cc2ccccc2)NC(=O)[C@H](CO)NC1=O)C(=O)N[C@@H](CC(C)C)C(=O)N[C@@H]([C@@H](C)O)C(=O)N[C@@H]([C@@H](C)O)C(=O)N[C@@H](CCC(=O)O)C(=O)N[C@@H](CC(C)C)C(=O)N[C@H](C(N)=O)CSC3 [Ac-(06-34-18) Phe2 Tyr4 Thr7 Thr8 Glu9] (Ac-CSFPYRCLTTELC-NH2; linker 1-7-13 via TBMB)    193

Moving on to another molecule below.
Q: Lab request: please report F (Kivar/KiWT) under test system human plasma Kallikrein (Homo sapiens, UniProt P03952) for CC(=O)N[C@H]1CSCc2cc3cc(c2)CSC[C@H](NC(=O)[C@H](CCCNC(=N)N)NC(=O)[C@H](Cc2ccc(O)cc2)NC(=O)[C@@H]2CCCN2C(=O)[C@H](Cc2ccccc2)NC(=O)[C@H](CO)NC1=O)C(=O)N[C@@H](CC(C)C)C(=O)N[C@@H](Cc1c[nH]cn1)C(=O)N[C@@H](CN)C(=O)N[C@@H](CC(=O)O)C(=O)N[C@@H](CC(C)C)C(=O)N[C@H](C(N)=O)CSC3 [Ac-(06-34-18) Phe2 Tyr4 Dap8] (Ac-CSFPYRCLH[Dap]DLC-NH2; linker 1-7-13 via TBMB)
A: 13

###

Target: human plasma Kallikrein (Homo sapiens)
Construct: purchased Stratech, UK
Test: Functional enzyme inhibition assay with fluorogenic substrate Z-PheArg-AMC, human plasma Kallikrein
Format: biochemical
Settings: Table 24b; ratio of Ki to wild type
Experimental: Functional enzyme assays were conducted in 10 mM Tris HCl, 150 mM NaCl, 10 mM MgCl2, 1 mM CaCl2) and 1 mg/mL BSA (all Sigma UK) pH7.4 at 25° C. in solid black 96 well plates. […] Release of AMC was measured using a Pherastar FS (BMG Labtech), excitation 360 nm, emission 460 nm. The rate of the linear phase of the reaction, typically 5 to 45 minutes, was calculated in MARS data analysis software (BMG labtech). […]
Numbered stars: 1 amine (or outer) side, 2 acyl side, 3 side chain; on linkers, the order of the positions; unused ones are H or OH. Bridge positions count the residues as written; N and C are the ends. Square brackets hold non-standard residues; d marks the D form. Peptide text beside a SMILES is read from it. Ala(2-furyl) = N[C@@H](Cc1ccco1)C(=O)O; TBMB = c1c(C[*:1])cc(C[*:3])cc1C[*:2]
outcome_measure: F (Kivar/KiWT)
Enter a number only.

Q: Field: F (Kivar/KiWT) (human plasma Kallikrein (Homo sapiens)). Entry: CC(=O)N[C@H]1CSCc2cc3cc(c2)CSC[C@H](NC(=O)[C@H](CCCNC(=N)N)NC(=O)[C@H](Cc2ccc(O)cc2)NC(=O)[C@@H]2CCCN2C(=O)[C@H](Cc2ccccc2)NC(=O)[C@H](CO)NC1=O)C(=O)N[C@@H](CC(C)C)C(=O)N[C@@H](Cc1ccco1)C(=O)N[C@@H](CCC(N)=O)C(=O)N[C@@H](CC(=O)O)C(=O)N[C@@H](CC(C)C)C(=O)N[C@H](C(N)=O)CSC3 [Ac-(06-34-18) Phe2 Tyr4 4FuAla7] (Ac-CSFPYRCL[Ala(2-furyl)]QDLC-NH2; linker 1-7-13 via TBMB)
A: 39
